# Target Or System: Corticotropin-releasing factor receptor 2/Corticotropin-releasing factor-binding protein (Homo sapiens, UniProt P24387+Q13324)
# Sequence (Q13324 whole entry): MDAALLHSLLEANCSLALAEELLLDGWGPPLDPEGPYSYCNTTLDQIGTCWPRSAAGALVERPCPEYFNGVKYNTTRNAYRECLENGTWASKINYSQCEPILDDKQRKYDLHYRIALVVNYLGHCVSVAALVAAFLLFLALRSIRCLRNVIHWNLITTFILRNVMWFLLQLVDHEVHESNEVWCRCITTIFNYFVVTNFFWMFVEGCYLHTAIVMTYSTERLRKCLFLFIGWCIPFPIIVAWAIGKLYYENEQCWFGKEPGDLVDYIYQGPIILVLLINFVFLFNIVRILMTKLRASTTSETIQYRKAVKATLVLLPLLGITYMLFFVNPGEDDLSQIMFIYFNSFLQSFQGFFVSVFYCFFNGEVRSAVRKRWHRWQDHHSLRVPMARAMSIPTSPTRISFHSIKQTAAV
# Sequence (P24387 whole entry): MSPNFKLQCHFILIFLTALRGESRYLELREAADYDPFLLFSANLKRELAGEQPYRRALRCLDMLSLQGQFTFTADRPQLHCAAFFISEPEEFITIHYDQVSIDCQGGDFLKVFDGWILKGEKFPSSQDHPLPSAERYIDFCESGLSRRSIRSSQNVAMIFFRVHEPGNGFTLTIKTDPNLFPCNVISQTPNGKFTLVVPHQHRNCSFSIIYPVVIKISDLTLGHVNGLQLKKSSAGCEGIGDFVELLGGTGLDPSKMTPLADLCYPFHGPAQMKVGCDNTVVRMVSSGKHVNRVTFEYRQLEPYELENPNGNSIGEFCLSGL
# Method Notes: activators of CRF receptor 2 with binding protein – uHTS hits, confirmation (AID 602473)
# Format: functional
# Cond: read-out: EC50_Mean
Activity calls are given as the source filed them. Cut-off read from the data, not from the text of the source: actives have a measured EC50 and inactives only a lower limit.
Mark one answer only. Choices: YES (active), NO (inactive)

Below are worked cases with known answers.
COc1cc(-c2ccc3cc(OC)c(OC)c(OC)c3c2)cc(OC)c1OC = NO
C/C(=N\NC(=S)Nc1ccc(C)cc1)c1cccc(N)c1 = NO
C#CCSc1nc(C)cc(C(=O)OCC)c1C#N = NO
N#Cc1ccc(CSC2=NCCN2)cc1 = NO
CN(C)c1ccc(C(=O)OCC(=O)Nc2ccc(S(N)(=O)=O)cc2)cc1 = NO

**Q:** Kindly provide the recorded test outcome for the following compound: Cc1ccc(NS(=O)(=O)c2ccc(C(=O)N3CC(C)OC(C)C3)cc2)cc1 (stereo not drawn)
**A:** YES

**Q:** Kindly provide the recorded test outcome for the following compound: O=C(NCc1csc(-c2cccs2)n1)c1ccccc1
**A:** NO

**Q:** Kindly provide the recorded test outcome for the following compound: O=C(Cc1ccccc1)NCC(=O)OC(c1ccccc1)c1ccccc1
**A:** NO
